All figures here come from ChEMBL document CHEMBL2321666.

A collection of compounds and their measured Activity
# Test system: MDA-MB-231
# Test description: Cytotoxicity against human MDA-MB-231 cells assessed as colony formation at 10 uM after 2 weeks relative to control
# Type: cell-based
# Condition: mda-mb-231, 336 h

Molecule | Activity [%]
Cc1ccc(-c2csc(NC(=O)c3ccccc3)n2)c(C)c1 | 85
CN(C(=O)C1CCCCC1)c1nc(-c2ccccc2)cs1 | 97.5
O=C(Nc1nc(-c2ccccc2)cs1)C1CCCCC1 | 103.4
CCCCCC(=O)N(C)c1nc(-c2ccccc2)cs1 | 127.5
Cc1ccc(-c2cs/c(=N/C(=O)c3ccccc3)n2C)c(C)c1 | 120.9
O=C(Nc1nc(-c2ccccc2)cs1)c1cccnc1 | 102.8
CN(C(=O)C1CCCC1)c1nc(-c2ccccc2)cs1 | 132.4
COc1cc(OC)c(-c2csc(N(C)C(=O)c3ccccc3)n2)c(OC)c1 | 110.4
CCCCCCCCCCCC(=O)N(C)c1nc(-c2ccccc2)cs1 | 111.1
COc1cc(OC)c(-c2csc(NC(=O)c3ccccc3)n2)c(OC)c1 | 108.8
Cn1c(-c2ccccc2)cs/c1=N/C(=O)c1ccccc1 | 25.2
CCCCCCCCCCCC(=O)Nc1nc(-c2ccccc2)cs1 | 71.5
Cc1ccc(-c2cs/c(=N/C(=O)c3cccs3)n2C)c(C)c1 | 102.3
O=C(Nc1nc(-c2ccccc2)cs1)c1ccco1 | 98.8
Cn1c(-c2ccccc2)cs/c1=N/C(=O)c1cccnc1 | 111.5
O=C(Nc1nc(-c2ccccc2)cs1)c1ccncc1 | 95.5
CN(C(=O)c1ccccc1)c1nc(-c2ccccc2)cs1 | 123.4
